Hey, just so you know, these numbers are from the NIST ThermoML archive (doi:10.1016/j.jct.2011.10.013).

Give surface tension liquid-gas for every item shown.
details: 298.15 K, Dataphysics DCAT21 digital tensiometer
// units = mN/m; emit number, no label

# return recorded surface tension liquid-gas for input CCCCCCCC[n+]1ccccc1.O=[N+]([O-])[O-] [1-octylpyridinium nitrate]
35.76

# return recorded surface tension liquid-gas for input "CCCCO"
23.67

# return recorded surface tension liquid-gas for input "CO"
22.09

# return recorded surface tension liquid-gas for input "CCO"
21.55
